Tested on: SK-OV-3
Test: NCI tumour cell line growth inhibition, 48 h
The source made the active and inactive calls. Cut-off read from the data, not from the text of the source: active = GI50 up to about 1.1 µM and inactive = higher.
Exercise: state measured GI50 for each of the compounds provided.

These solved cases illustrate the format of a correct answer.
[[record]]
compound = "[N-]=[N+]=NC1(c2ccccc2)C(=O)C(Cl)=C(c2ccccc2)N(c2ccccc2)C1=O (centres undefined)"
attribute_measured = "GI50"
reported_value = "31.3 µM (inactive)"

[[record]]
compound = "OCC1=CC(NC2CC(CO)C(O)C(O)C2O)C(O)C(O)C1O (centres undefined)"
attribute_measured = "GI50"
reported_value = "> 100 µM (inactive)"

[[record]]
compound = "O=C(Cc1nc2ncccc2[nH]c1=O)c1c[nH]c2ccccc12"
attribute_measured = "GI50"
reported_value = "16.3 µM (inactive)"

[[record]]
compound = "CCOC(=O)c1nc2ccc(C(F)(F)F)cc2nc1Oc1cc(OC)c(OC)c(OC)c1"
attribute_measured = "GI50"
reported_value = "> 100 µM (inactive)"

[[record]]
compound = "CC1=C2CCCC2=C/C(=N/Nc2ccc([N+](=O)[O-])cc2[N+](=O)[O-])CC1"
attribute_measured = "GI50"
reported_value = "> 100 µM (inactive)"

[[record]]
compound = "c1ccc(C2=Nc3nc4ccccc4n3C(c3ccccc3)C2)cc1 (centres undefined)"
attribute_measured = "GI50"
reported_value = "> 100 µM (inactive)"

[[record]]
compound = "CC(C)CC/N=c1/cc2n(-c3ccc(Cl)cc3)c3ccccc3nc-2cc1Nc1ccc(Cl)cc1"
attribute_measured = "GI50"
reported_value = "18.1 µM (inactive)"

[[record]]
compound = "CC(=O)Oc1ccc(/C=C/C(=O)O[C@@H](C)[C@H](C)OC(=O)/C=C/c2ccc(OC(C)=O)c(OC(C)=O)c2)cc1OC(C)=O"
attribute_measured = "GI50"
reported_value = "19.5 µM (inactive)"


Let us move to another entry and its GI50.
Query: If you can, please state the reported GI50 value of NC(=O)c1cccc(C2OC(COP(=O)(O)O)C(O)C2O)c1 (centres undefined) .
Result: > 50 µM (inactive)

###

Tested on: SF-268
Test: NCI tumour cell line growth inhibition, 48 h
Calls of active or inactive are those of the source. Cut-off read from the data, not from the text of the source: active = GI50 up to about 1.1 µM and inactive = higher.
Valid outcomes are listed here; reply with one: active, inactive

These recorded examples may help you get a feel for the data.
[[record]]
compound = "N#C/C(N)=C(C#N)/N=C/Nc1ccccc1N"
assigned_class = "inactive"

[[record]]
compound = "COC(=O)/C=C1/OC(c2ccc(OC)cc2)=C(Cl)C1=O"
assigned_class = "inactive"

[[record]]
compound = "CS(=O)(=O)c1ccc2nc(-c3ccc(O)cc3)sc2c1"
assigned_class = "inactive"


Please turn your attention to the following entry.
Query: Could you kindly confirm the outcome this assay logged for Cc1nc2c(sc(=S)n2-c2ccccc2)c2nc3ncccc3n12 ?
Result: inactive

###

System: NCI-H23
Test: NCI tumour cell line growth inhibition, 48 h
Calls of active or inactive are those of the source. No stated cut-off is given here; in the data, active = GI50 up to about 1.1 µM and inactive = higher.
ATTRIBUTE MEASURED: GI50

[[record]]
compound = "CC1=CC(C)(C)N=C2SC(c3ccc(Cl)cc3)=NN12"
measurement_target = "NCI-H23"
attribute_measured = "GI50"
reported_value = "15.5 µM (inactive)"

[[record]]
compound = "Nc1ccc(-c2nc3ccc(F)cc3s2)cc1"
measurement_target = "NCI-H23"
attribute_measured = "GI50"
reported_value = "31.3 µM (inactive)"

[[record]]
compound = "N#Cc1nc(C2CC2)oc1N"
measurement_target = "NCI-H23"
attribute_measured = "GI50"
reported_value = "> 100 µM (inactive)"

[[record]]
compound = "CC(C)=CCC/C(C)=C/CC/C(C)=C/CC/C(C)=C/C=C/C=C(\\C)CC/C=C(\\C)CC/C=C(\\C)CCC=C(C)C"
measurement_target = "NCI-H23"
attribute_measured = "GI50"
reported_value = "68.2 µM (inactive)"

[[record]]
compound = "COc1cccc(NC(=O)C(=O)C(C(=O)c2ccccc2F)C2OC(=O)c3ccccc32)c1 (stereo not given)"
measurement_target = "NCI-H23"
attribute_measured = "GI50"
reported_value = "29.6 µM (inactive)"

[[record]]
compound = "N#CC1(Cc2ccccc2Cl)c2ccccc2C=CN1C(=O)c1ccccc1 (stereo not given)"
measurement_target = "NCI-H23"
attribute_measured = "GI50"
reported_value = "28.2 µM (inactive)"

[[record]]
compound = "CCOC(=O)CC1NC(=O)CS1 (stereo not given)"
measurement_target = "NCI-H23"
attribute_measured = "GI50"
reported_value = "> 100 µM (inactive)"

[[record]]
compound = "CN[C@H]1CC[C@]23C[C@]24CC[C@]2(C)[C@@H]([C@H](C)N(C)C)CC[C@@]2(C)[C@@H]4CC[C@H]3C1(C)C"
measurement_target = "NCI-H23"
attribute_measured = "GI50"
reported_value = "15.7 µM (inactive)"

[[record]]
compound = "COc1cc(/C=C/C(=O)OC[C@H](Br)[C@H](OC(C)=O)c2ccc3c(c2)OCO3)cc(OC)c1OC"
measurement_target = "NCI-H23"
attribute_measured = "GI50"
reported_value = "> 100 µM (inactive)"

[[record]]
compound = "CCCCCCCCCCc1c2nc(c(CCCCCCCCCC)c3ccc([nH]3)c(CCCCCCCCCC)c3nc(c(CCCCCCCCCC)c4ccc1[nH]4)C=C3)C=C2"
measurement_target = "NCI-H23"
attribute_measured = "GI50"
reported_value = "> 100 µM (inactive)"


// for each compound in input: emit GI50
1. COc1cc(/C=N/NC(=O)c2ccc(NC(C)=O)cc2OC)ccc1O
2. [N-]=[N+]=NC(c1cn(C2CC(O)C(CO)O2)c(=O)[nH]c1=O)C(Cl)I (stereo not given)
3. COc1cc2c(cc1OC)C(=O)N(c1ccc(O)cc1)C2=O
4. NC1(CCNC(=O)c2ccccc2)CCN(C(=O)c2ccccc2)CC1
5. Cc1nnc2n1N=C(c1ccc(-c3ccc([N+](=O)[O-])cc3)o1)CS2
6. Nc1c2ccccc2nc2ccc3c(=O)cc(-c4ccccc4)oc3c12

Result:
1: 54.6 µM (inactive); 2: > 100 µM (inactive); 3: > 100 µM (inactive); 4: > 100 µM (inactive); 5: 35.1 µM (inactive); 6: 1.53 µM (inactive)
